- Species on record: Homo sapiens
- assay procedure: Binding affinity to human AAG at 37 degC by induced circular dichroism method
compounds and their reported Ka

{"columns": ["compound", "Ka"],
 "data": [
  ["CCN(CC)CCCC(C)Nc1c2ccc(Cl)cc2nc2ccc(OC)cc12 (centres undefined)", "2.3 10^5/M"],
  ["COc1cc(NC(C)CCCN)c2ncccc2c1 (centres undefined)", "4.1 10^5/M"],
  ["COc1cc(C)c2c(Oc3cccc(C(F)(F)F)c3)c(OC)cc(NC(C)CCCN)c2n1 (centres undefined)", "3.3 10^5/M"],
  ["CCN(CC)Cc1cc(Nc2ccnc3cc(Cl)ccc23)ccc1O", "4.8 10^4/M"]
]}
